Recorded values, source patent US5621133A.

Item-by-item account of Ki
# systemUnderTest: dopamine D-2 receptor (Rattus norvegicus)
# Sequence (P61169 whole entry): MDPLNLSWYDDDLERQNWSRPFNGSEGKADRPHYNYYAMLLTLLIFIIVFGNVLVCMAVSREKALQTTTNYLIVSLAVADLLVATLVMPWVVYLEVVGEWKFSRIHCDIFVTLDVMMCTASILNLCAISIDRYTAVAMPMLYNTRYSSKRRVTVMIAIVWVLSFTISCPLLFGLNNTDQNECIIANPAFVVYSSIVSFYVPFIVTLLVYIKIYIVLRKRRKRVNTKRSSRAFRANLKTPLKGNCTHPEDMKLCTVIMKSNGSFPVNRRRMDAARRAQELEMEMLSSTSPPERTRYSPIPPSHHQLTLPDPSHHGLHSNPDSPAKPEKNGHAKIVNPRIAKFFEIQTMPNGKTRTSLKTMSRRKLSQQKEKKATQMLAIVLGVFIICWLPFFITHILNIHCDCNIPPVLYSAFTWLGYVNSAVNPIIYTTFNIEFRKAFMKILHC
# measurementNotes: biochemical
# Format: binding
# conditionDetails: rat caudate, [125I]-p-aminophenylethyl spiroperidol; read-out: D-2 Ki
# Experimental: Homogenized rat caudate was the source of the D-2 receptors. […] The molar affinity of the compound for the receptor binding site was calculated by the same method used for the D-1 receptor assay, assuming a competitive interaction between the compound and the radiolabeled ligand.
quantityKind: Ki

[
  {
    "molecule": "CCCCC1Cc2c(ccc(O)c2O)C2=C1CCNC2 (stereo not shown)",
    "systemUnderTest": "dopamine D-2 receptor (Rattus norvegicus)",
    "quantityKind": "Ki",
    "experimentalResult": "3000 nM"
  },
  {
    "molecule": "CC(C)(C)CC1Cc2c(ccc(O)c2O)C(CN)O1.Cl (stereo not shown) [Example 214, Hydrochloride]",
    "systemUnderTest": "dopamine D-2 receptor (Rattus norvegicus)",
    "quantityKind": "Ki",
    "experimentalResult": "5200 nM"
  },
  {
    "molecule": "NC[C@H]1O[C@@H](c2ccc(C(F)(F)F)cc2)Cc2c1ccc(O)c2O (relative stereo)",
    "systemUnderTest": "dopamine D-2 receptor (Rattus norvegicus)",
    "quantityKind": "Ki",
    "experimentalResult": "1900 nM"
  },
  {
    "molecule": "NC[C@H]1O[C@@H](CNC(=O)c2ccc(Br)cc2)Cc2c1ccc(O)c2O (relative stereo)",
    "systemUnderTest": "dopamine D-2 receptor (Rattus norvegicus)",
    "quantityKind": "Ki",
    "experimentalResult": "2.1 nM"
  }
]

###

# systemUnderTest: dopamine D-1 receptor
# conditionDetails: read-out: EC50 (agonist activity in adenylate cyclase assay); tissue from goldfish retina or rat striatum
pEC50: −log10 of the molar value. Counter-ions that a name gives are not always drawn.
Recorded pEC50, one value per entry.
quantityKind: pEC50

[
  {
    "molecule": "CCCCCC(NC(C)=O)[C@@H]1Cc2c(ccc(O)c2O)[C@H](CN)O1 (relative stereo) [Example 162]",
    "systemUnderTest": "dopamine D-1 receptor",
    "experimentalResult": 6.16
  },
  {
    "molecule": "NC[C@@H]1O[C@H](CCc2ccccc2)Cc2c1ccc(O)c2O (relative stereo) [Example 61]",
    "systemUnderTest": "dopamine D-1 receptor",
    "experimentalResult": 8.22
  },
  {
    "molecule": "NCC1CC2(CCCC2)Cc2c1ccc(O)c2O (stereo not drawn) [Example 196]",
    "systemUnderTest": "dopamine D-1 receptor",
    "experimentalResult": 5.96
  },
  {
    "molecule": "NCC1OC2(CCCCCC2)Cc2c1ccc(O)c2O (stereo not drawn) [Example 93]",
    "systemUnderTest": "dopamine D-1 receptor",
    "experimentalResult": 6.96
  },
  {
    "molecule": "Oc1ccc2c(c1O)CC1(CCCC1)C1=C2CNCC1 [Example 204]",
    "systemUnderTest": "dopamine D-1 receptor",
    "experimentalResult": 7.32
  },
  {
    "molecule": "CN1CCC2=C(C1)c1ccc(O)c(O)c1CC21CCCC1 [Example 211]",
    "systemUnderTest": "dopamine D-1 receptor",
    "experimentalResult": 7.20
  },
  {
    "molecule": "NC[C@H]1O[C@@H](CO)Cc2c1ccc(O)c2O (relative stereo) [Example 155, Hydrochloride]",
    "systemUnderTest": "dopamine D-1 receptor",
    "experimentalResult": 6.82
  },
  {
    "molecule": "NC[C@@H]1O[C@H](COc2ccc(Br)cc2)Cc2c1ccc(O)c2O (relative stereo) [Example 58]",
    "systemUnderTest": "dopamine D-1 receptor",
    "experimentalResult": 7.72
  },
  {
    "molecule": "NCC1OC(CC2CCCC2)Cc2c1ccc(O)c2O (stereo not drawn) [Example 215]",
    "systemUnderTest": "dopamine D-1 receptor",
    "experimentalResult": 7.70
  },
  {
    "molecule": "NCC1CC2(CCCCCCC2)Cc2c1ccc(O)c2O (stereo not drawn) [Example 197]",
    "systemUnderTest": "dopamine D-1 receptor",
    "experimentalResult": 6.74
  },
  {
    "molecule": "NCC1=CC(c2cccc3ccccc23)Cc2c1ccc(O)c2O (stereo not drawn) [Example 41]",
    "systemUnderTest": "dopamine D-1 receptor",
    "experimentalResult": 5.74
  },
  {
    "molecule": "NCC1CC2(CCCCCCCC2)Cc2c1ccc(O)c2O (stereo not drawn) [Example 236]",
    "systemUnderTest": "dopamine D-1 receptor",
    "experimentalResult": 6.15
  },
  {
    "molecule": "NC[C@@H]1C[C@H](C23CC4CC(CC(C4)C2)C3)Cc2c1ccc(O)c2O (relative stereo) [Example 235]",
    "systemUnderTest": "dopamine D-1 receptor",
    "experimentalResult": 6.52
  },
  {
    "molecule": "NC[C@H]1O[C@@H](COc2ccccc2-c2ccccc2)Cc2c1ccc(O)c2O (relative stereo) [Example 56]",
    "systemUnderTest": "dopamine D-1 receptor",
    "experimentalResult": 6.37
  },
  {
    "molecule": "NCC1=CC2(CCCCC2)Cc2c1ccc(O)c2O [Example 189]",
    "systemUnderTest": "dopamine D-1 receptor",
    "experimentalResult": 5.82
  },
  {
    "molecule": "COC(=O)Oc1ccc2c(c1OC(=O)OC)CC(c1ccccc1)C=C2CN (stereo not drawn) [Example 23]",
    "systemUnderTest": "dopamine D-1 receptor",
    "experimentalResult": 5.96
  },
  {
    "molecule": "NC[C@@H]1O[C@H](COCc2ccccc2)Cc2c1ccc(O)c2O (relative stereo) [Example 75]",
    "systemUnderTest": "dopamine D-1 receptor",
    "experimentalResult": 6.54
  },
  {
    "molecule": "NC[C@@H]1O[C@H](C2CCCCC2)CCc2c1ccc(O)c2O (relative stereo) [Example 176, Hydrochloride]",
    "systemUnderTest": "dopamine D-1 receptor",
    "experimentalResult": 6.49
  }
]
